# Tested on: IL6 production in RAW 264.7 macrophage cell line
# MEASUREMENT_PROTOCOL: Mouse IL6 quantification assay (LPS-stimulated macrophages, ELISA)
# Type: cell-based
# CONDITION_INFO: RAW264.7, RAW 264.7 murine leukemia virus transformed macrophage cell lines, LPS stimulation, read-out: IL-6 % Inhibition at 30 μM
Below, each entry is listed with its recorded inhibition at 30 µM.

>  <COMPOUND>
O=C(c1csc2c(O)nc(-c3ccccn3)nc12)N1CCN(Cc2ccccc2)CC1 [drawing 2187]

>  <MEASURED_VALUE>
76 to 100%

$$$$
>  <COMPOUND>
COc1ncc(CCNC(=O)c2csc3nc(-c4ccccn4)nc(N4CCOCC4)c23)cn1 [drawing 2175]

>  <MEASURED_VALUE>
1 to 25%

$$$$
>  <COMPOUND>
Cc1sc2c(O)nc(-c3ccccn3)nc2c1-c1ccccc1 [drawing 2297]

>  <MEASURED_VALUE>
76 to 100%

$$$$
>  <COMPOUND>
O=C(Nc1nnc(-c2ccccn2)[nH]1)c1ccc(Oc2ccccc2)nc1 [drawing 1956]

>  <MEASURED_VALUE>
26 to 50%

$$$$

We next turn to a different compound, shown below.
Exam item: GET /values?readout=inhibition at 30 µM&system=IL6 production in RAW 264.7 macrophage cell line&item= Oc1nc(-c2ccccn2)nc2c(-c3cc(F)cc(F)c3)csc12 [drawing 2292]
Marked response: 76 to 100%
